# Tested on: SF-539 CNS
# Method summary: NCI-60 one-dose screen, 48 h (100 = growth as untreated, 0 = no growth, -100 = all killed)
# Setup conditions: 10 µM unless noted
About 83,000 compounds went through this panel and 20% of them were active in at least one assay; those are over-represented in the sample as a whole.
Returns True if the recorded growth is greater than or equal to 80%, and False otherwise.

# count of solved cases: 4
Nc1nc(-c2ccc(Cl)cc2)nc2c1sc(=S)n2-c1ccccc1 = False
CCCc1c(OC(=O)c2ccccc2)nc2[nH]c(=O)sc2c1C = True
Nc1n[nH]c2cccc(C#Cc3cccc(NC(=O)c4cc(F)cc(C(F)(F)F)c4)c3)c12 = False
O=C(Nc1ccccc1)Nc1ncnc2c1ncn2-c1ccc(Cl)cc1 = True

API: above_or_equal(metric=growth, cutoff=80%) for item O=C(CSc1nc2sc3c(c2c(=O)n1-c1ccccc1)CCCCC3)N/N=C/c1cccc([N+](=O)[O-])c1
False

Decide: is the reported value of growth for CN(/C(N)=N/N=C/c1c2ccccc2cc2ccccc12)C1CCCCC1 equal to or greater than 80%?
False

Assess whether reported growth for CCC(C)(C)C(=O)O[C@H]1C[C@@H](C)C=C2C=C[C@H](C)[C@H](CC[C@@H]3CC(SCCN)CC(=O)O3)[C@H]21 (stereo not given in full) sits at 80% or higher.
False

Determine whether this compound has growth no lower than 80%: CCc1ccc(CCCC(=O)O)cc1
True

Does the compound COc1ccc(C(=O)c2cc3c(N)c(C(=O)Nc4ccc(C)cc4)sc3nc2C)cc1 have recorded growth that is 80% or more?
False

Check this compound for growth at or above 80%: COc1ccccc1NC(=O)N=Nc1c(O)[nH]c2ccccc12
True

---

# System: MALME-3M melanoma
# Method summary: NCI-60 one-dose screen, 48 h
# Setup conditions: 10 µM unless noted
About 83,000 compounds went through this panel and 20% of them were active in at least one assay; those are over-represented in the sample as a whole. Active and inactive are the calls of the source. Rule for the calls: active = growth percent below 10; inactive = the rest.
// classify into 1 = active, -1 = inactive

Answered cases to consult:
CCSc1oc(-c2ccccc2)nc1[P+](c1ccccc1)(c1ccccc1)c1ccccc1 = 1
Cc1ccc(NC(=O)c2sc3nc(C)c(Br)c(C)c3c2N)cc1 = -1
CC/C(=C(/c1ccc(Cl)cc1)c1ccc(OCCN(C)C)cc1)c1ccc(Cl)cc1 = -1
N#C/C(=C\c1c(-c2ccccc2)[nH]c2ccccc12)C(N)=O = -1
CCC1=C[C@@H]2C[C@]3(C(=O)OC)c4[nH]c5ccccc5c4CC[N@+](CC(=O)Nc4cc5c(cc4OC)N(C)[C@H]4[C@@](O)(C(=O)OC)[C@H](OC(C)=O)[C@]6(CC)C=CCN7CC[C@]54[C@@H]76)(C2)[C@H]13 = -1

What outcome does the record of this test show for CCSC(SCC)c1ccc(Cl)cc1 ?
-1

What is the recorded call for this molecule in the test? CCN(CC)CCn1c2ccc(O)cc2c2sc3cc(O)ccc3c(=O)c21
-1

// outcome(item) with item = CCc1ccc(CCCC(=O)O)cc1
-1

Outcome logged for CC(C)c1ccc(C(=O)Nc2sc3c(c2C(N)=O)CCC(=O)C3)cc1 in this assay:
1

For this molecule, state the assay outcome: CNC(=O)c1ccccc1Oc1nc(Nc2cc(OC)c(OC)c(OC)c2)ncc1Br
-1

Please let me know the test result on file for Fc1cnccc1C1CC(c2ccc(N3CCNCC3)cc2)=NN1 (stereo not drawn) .
-1

Test call for this molecule, please: CCOC(=O)c1csc(NC(=O)COc2ccc(/C=C3\Oc4ccccc4C3=O)cc2)n1
-1

Recorded test call requested for CC/C=C\C[C@H](O)C/C=C1/C(=O)C=C[C@@H]1C/C=C\CCCC(=O)N(C)C
1

Which result was noted for this molecule in the test: CCCCNCCCCCNc1cc(OC)cc2cccnc12
-1

// return assay outcome for O=C1NC(=O)C(Cc2ccc(OCc3ccc(-c4ccc(Cl)cc4Cl)cc3)cc2)S1 (stereo not drawn)
-1
